# Test system: HIV-1IIIB virus strain
# Method Summary: Anti-HIV activity test (MT-2 cell model), p24 antigen ELISA
# Format: cell-based
# Measurement Setup: MT-2 cells; ratio of toxicity CC50 value to activity EC50 value
Quick reference: SI(CC50/EC50) of the listed items.
Returns: the value as a bare number; no unit string appended.

INSERT INTO assay_data (compound, recorded_endpoint, numeric_readout) VALUES
  ('Cc1cc(Br)cc(C)c1Oc1ccc(N)c(Nc2ccc(C#N)cc2)n1 [Compound I-12]', 'SI(CC50/EC50)', 259),
  ('Cc1cc(I)cc(C)c1Oc1ccc([N+](=O)[O-])c(Nc2ccc(C#N)cc2)n1 [Compound I-16]', 'SI(CC50/EC50)', 61),
  ('C#Cc1cc(C)c(Oc2ccc(N)c(Nc3ccc(C#N)cc3)n2)c(C)c1 [Compound I-23]', 'SI(CC50/EC50)', 19),
  ('Cc1cc(Br)cc(C)c1Oc1ccc([N+](=O)[O-])c(Nc2ccc(C#N)cc2)n1 [Compound I-1]', 'SI(CC50/EC50)', 62);

Output measured SI(CC50/EC50) for this item: C=CCc1cc(C)c(Oc2ccc(N)c(Nc3ccc(C#N)cc3)n2)c(C)c1 [Compound I-13]
24

Output measured SI(CC50/EC50) for this item: N#Cc1ccc(Nc2nc(Oc3c(Br)cc(Br)cc3Br)ccc2[N+](=O)[O-])cc1 [Compound I-26]
151

====

# Tested on: HIV-1IIIB virus strain
# Method Summary: Anti-HIV activity test (MT-2 cell model), p24 antigen ELISA
# Format: cell-based
# Measurement Setup: MT-2 cells; ratio of toxicity CC50 value to activity EC50 value
Quick reference: SI(CC50/EC50) of the listed items.
Returns: the value as a bare number; no unit string appended.

Output measured SI(CC50/EC50) for this item: Cc1cc(I)cc(C)c1Oc1ccc(N)c(Nc2ccc(C#N)cc2)n1
298

Output measured SI(CC50/EC50) for this item: Cc1cc(C(O)C[N+](=O)[O-])cc(C)c1Oc1ccc([N+](=O)[O-])c(Nc2ccc(C#N)cc2)n1 (stereo not drawn)
16

====

Quick reference: CC50 at 4 days of the listed items.
# Method Summary: Cytotoxicity test of the compound (MT-2 cells, XTT)
# Type: cell-based
# Measurement Setup: human, 4th day
Lab book: enter the figure in µg/mL, no units written.

Some entries whose results are on file:
INSERT INTO assay_data (smiles_str, recorded_endpoint, numeric_readout) VALUES
  ('N#Cc1ccc(Nc2nc(Oc3c(F)cccc3F)ccc2[N+](=O)[O-])cc1', 'CC50 at 4 days', 39.7),
  ('Cc1cc(C#N)cc(C)c1Oc1ccc(N)c(Nc2ccc(C#N)cc2)n1', 'CC50 at 4 days', 11.3),
  ('Cc1cc(C=CC#N)cc(C)c1Oc1ccc(N)c(Nc2ccc(C#N)cc2)n1', 'CC50 at 4 days', 27.9);

Output measured CC50 at 4 days for this item: N#CC=Cc1cc(Br)c(Oc2ccc([N+](=O)[O-])c(Nc3ccc(C#N)cc3)n2)c(Br)c1
24.8

====

# Method Summary: Cytotoxicity test of the compound (MT-2 cells, XTT)
# Assay type: cell-based
# Measurement Setup: human, 4th day
Recorded Endpoint: log10(CC50 at 4 days) (log10 of the value in µg/mL)
The base-10 logarithm of CC50 at 4 days, taken with CC50 at 4 days in µg/mL, is what appears here.

Some entries whose results are on file:
INSERT INTO measurements (compound, recorded_endpoint, numeric_readout) VALUES
  ('C#Cc1cc(C)c(Oc2ccc([N+](=O)[O-])c(Nc3ccc(C#N)cc3)n2)c(C)c1 [Compound I-22]', 'log10(CC50 at 4 days)', 1.82),
  ('Cc1cc(Br)cc(C)c1Oc1ccc([N+](=O)[O-])c(Nc2ccc(C#N)cc2)n1 [Compound I-1]', 'log10(CC50 at 4 days)', 1.51),
  ('Cc1cc(C#N)cc(C)c1Oc1ccc([N+](=O)[O-])c(Nc2ccc(C#N)cc2)n1 [Compound I-2]', 'log10(CC50 at 4 days)', 1.29),
  ('Cc1cc(I)cc(C)c1Oc1ccc([N+](=O)[O-])c(Nc2ccc(C#N)cc2)n1 [Compound I-16]', 'log10(CC50 at 4 days)', 1.86);

Output measured log10(CC50 at 4 days) for this item: C#Cc1cc(C)c(Oc2ccc(N)c(Nc3ccc(C#N)cc3)n2)c(C)c1 [Compound I-23]
0.47

Output measured log10(CC50 at 4 days) for this item: N#Cc1ccc(Nc2nc(Oc3c(Br)cc(CO)cc3Br)ccc2[N+](=O)[O-])cc1 [Compound I-28]
1.56

Output measured log10(CC50 at 4 days) for this item: C=CCc1cc(C)c(Oc2ccc(N)c(Nc3ccc(C#N)cc3)n2)c(C)c1 [Compound I-13]
0.33

====

Quick reference: CC50 at 4 days of the listed items.
# Method Summary: Cytotoxicity test of the compound (MT-2 cells, XTT)
# Format: cell-based
# Measurement Setup: human, 4th day
Lab book: enter the figure in µg/mL, no units written.

INSERT INTO measurements (compound, units_symbol, numeric_readout) VALUES
  ('Cc1cc(Br)cc(C)c1Oc1ccc(N)c(Nc2ccc(C#N)cc2)n1', 'µg/mL', 5.44);

Output measured CC50 at 4 days for this item: N#Cc1ccc(Nc2nc(Oc3c(Br)cc(C=O)cc3Br)ccc2[N+](=O)[O-])cc1
0.78

====

Recorded Endpoint: melting point

Some entries whose results are on file:
INSERT INTO measurements (compound, recorded_endpoint, result) VALUES
  ('Cc1cc([N+](=O)[O-])cc(C)c1Oc1ccc([N+](=O)[O-])c(Nc2ccc(C#N)cc2)n1', 'melting point', '250 to 252 °C'),
  ('N#Cc1ccc(Nc2nc(Oc3c(Br)cc(C=O)cc3Br)ccc2[N+](=O)[O-])cc1 [Compound I-27]', 'melting point', '218 to 220 °C');

Output measured melting point for this item: Cc1cc(CNC2CC2)cc(C)c1Oc1ccc([N+](=O)[O-])c(Nc2ccc(C#N)cc2)n1 [Compound I-15]
175 to 177 °C

Output measured melting point for this item: N#Cc1ccc(Nc2nc(Oc3c(Br)cc(CO)cc3Br)ccc2[N+](=O)[O-])cc1 [Compound I-28]
209 to 213 °C

Output measured melting point for this item: Cc1cc(C#CC2CC2)cc(C)c1Oc1ccc(N)c(Nc2ccc(C#N)cc2)n1 [Compound I-21]
82 to 85 °C

====

Quick reference: SI(CC50/EC50) of the listed items.
# System: HIV-1IIIB virus strain
# Method Summary: Anti-HIV activity test (MT-2 cell model), p24 antigen ELISA
# Format: cell-based
# Measurement Setup: MT-2 cells; ratio of toxicity CC50 value to activity EC50 value
Returns: the value as a bare number; no unit string appended.

INSERT INTO results (smiles_str, numeric_readout) VALUES
  ('Cc1cc(CO)cc(C)c1Oc1ccc([N+](=O)[O-])c(Nc2ccc(C#N)cc2)n1', 602),
  ('C#Cc1cc(C)c(Oc2ccc([N+](=O)[O-])c(Nc3ccc(C#N)cc3)n2)c(C)c1', 256),
  ('Cc1cc(C#N)cc(C)c1Oc1ccc([N+](=O)[O-])c(Nc2ccc(C#N)cc2)n1', 371);

Output measured SI(CC50/EC50) for this item: N#Cc1ccc(Nc2nc(Oc3c(F)cccc3F)ccc2[N+](=O)[O-])cc1
2

Output measured SI(CC50/EC50) for this item: N#Cc1ccc(Nc2nc(Oc3c(Br)cc(CO)cc3Br)ccc2[N+](=O)[O-])cc1
145

Output measured SI(CC50/EC50) for this item: N#CC=Cc1cc(Br)c(Oc2ccc([N+](=O)[O-])c(Nc3ccc(C#N)cc3)n2)c(Br)c1
551

====

Quick reference: CC50 at 4 days of the listed items.
# Method Summary: Cytotoxicity test of the compound (MT-2 cells, XTT)
# Type: cell-based
# Measurement Setup: human, 4th day
Lab book: enter the figure in µg/mL, no units written.

Some entries whose results are on file:
INSERT INTO measurements (compound, recorded_endpoint, numeric_readout) VALUES
  ('Cc1cc(CO)cc(C)c1Oc1ccc([N+](=O)[O-])c(Nc2ccc(C#N)cc2)n1', 'CC50 at 4 days', 45.2),
  ('Cc1cc(C)c(Oc2ccc([N+](=O)[O-])c(Nc3ccc(C#N)cc3)n2)c(C)c1', 'CC50 at 4 days', 503),
  ('Cc1cc(C(O)C[N+](=O)[O-])cc(C)c1Oc1ccc([N+](=O)[O-])c(Nc2ccc(C#N)cc2)n1 (stereo not drawn)', 'CC50 at 4 days', 12.2),
  ('Cc1cc(I)cc(C)c1Oc1ccc(N)c(Nc2ccc(C#N)cc2)n1', 'CC50 at 4 days', 10.7),
  ('Cc1cc(C=CC#N)cc(C)c1Oc1ccc([N+](=O)[O-])c(Nc2ccc(C#N)cc2)n1', 'CC50 at 4 days', 24.8);

Please turn your attention to the following entry.
Output measured CC50 at 4 days for this item: N#Cc1ccc(Nc2nc(Oc3c(Br)cc(Br)cc3Br)ccc2[N+](=O)[O-])cc1
27
